target under test: human LPA1 (Homo sapiens, UniProt Q92633)
Construct: expressed in transfected cells; host or cells: CHO-K1
Sequence (Q92633 whole entry): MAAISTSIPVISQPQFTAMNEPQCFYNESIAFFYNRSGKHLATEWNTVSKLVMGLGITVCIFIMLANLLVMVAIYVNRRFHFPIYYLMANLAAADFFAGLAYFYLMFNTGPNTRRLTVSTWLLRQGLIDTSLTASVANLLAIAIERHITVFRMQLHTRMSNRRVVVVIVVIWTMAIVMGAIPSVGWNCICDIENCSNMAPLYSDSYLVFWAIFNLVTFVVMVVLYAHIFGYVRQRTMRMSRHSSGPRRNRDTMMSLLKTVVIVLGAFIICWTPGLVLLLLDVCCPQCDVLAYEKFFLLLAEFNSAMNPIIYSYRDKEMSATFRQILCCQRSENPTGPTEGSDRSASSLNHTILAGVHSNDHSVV
assay overview: In vitro LPA1 calcium flux antagonist assay - Bioduro protocol
Type: cell-based
test conditions: CHO-K1 cells overexpressing human LPA1 and G15a; LPA challenge at EC80; calcium mobilization on FLIPR Tetra; read-out: IC50
measured property: pIC50
One number for each entry, as −log10 of the molar value.

| compound | pIC50 |
| --- | --- |
| COc1cc(-c2ccc(OC3(C(=O)O)CCOCC3)cc2COC2CCCC2)c(Cl)c(OC)n1 | 6.86 |
| COc1cc(-c2ccc(NC3(C(=O)O)CCOCC3)cc2COC(C)C)c(F)c(OC)c1C | 7.12 |
| COc1c(C)c(OC)c(F)c(-c2ccc(NC3(C(=O)O)CCOCC3)cc2COC2CCCC2)c1F | 7.10 |
| CCOc1c(C)c(OC)cc(-c2ccc(NC3(C(=O)O)CC3)cc2COC2CC2)c1F | 7.12 |
| COc1cc(OC2CC2)cc(-c2ccc(NC3(C(=O)O)CCOCC3)cc2COC2CC2)c1 | 6.86 |
| CCOc1cccc(-c2ccc(NC3(C(=O)O)CCOCC3)cc2CCC2CCOC2)c1F (stereo not shown) | 7.17 |

Continue with the compound presented below.
// pIC50 lookup, compound = COc1cc(-c2c(C)cc(NC3(C(=O)O)CCOCC3)cc2COC2CCCC2)c(C)c(OC)c1C , result: 7.06

Entry source: patent US11884627B2
